// data source = paper PMC3750255

experimentalTarget: Mpn HPRT (Mycoplasmoides pneumoniae)
experimentDescription: biochemical
conditionParameters: substrate guanine, 10 μM [3H]-guanine
observable: IC50 (µM)
Answers are plain numbers, in µM.

GET /value?item= Sc1ncnc2nc[nH]c12 &field=IC50 returns 282

---

System: Mpn wild type cells
experimentDescription: Uptake and metabolism of tritium labelled natural nucleoside and nucleobases in the presence of analogs
Format: cell-based, Mycoplasma pneumoniae
conditionParameters: 10 μM analog, 70 hours; acid insoluble fraction / total in cells
Kindly supply the reported [3H]-Hx Incorporation values for the records listed here.
Answers are plain numbers, in %.

Please review the following examples before continuing.
Nc1ccn([C@@H]2O[C@H](CO)[C@@H](O)C2(F)F)c(=O)n1 67
OCCN(CCO)c1nc(N2CCCCC2)c2nc(N(CCO)CCO)nc(N3CCCCC3)c2n1 44
O=c1[nH]c(=O)n([C@H]2C[C@H](O)[C@@H](CO)O2)cc1C(F)(F)F 67
Nc1nc2nc[nH]c2c(=S)[nH]1 43

GET /value?item= O=c1[nH]c(=O)n([C@H]2C[C@H](O)[C@@H](CO)O2)cc1F &field=[3H]-Hx Incorporation returns 76

---

System: M. pneumoniae thyA mutant (lacking TS activity)
experimentDescription: microbe, parasite or virus in culture
Format: cell-based, Mycoplasma pneumoniae
conditionParameters: Mycoplasmoides pneumoniae, read-out: thyA mutant MIC
Kindly supply the reported log10 MIC values for the records listed here.
# log10 transformed; quantity=MIC; unit=µg/mL

compound	log10 MIC
Nc1nc(=O)[nH]cc1F [5-fluorocytosine]	1.49
Cc1cn([C@H]2C[C@H](N=[N+]=[N-])[C@@H](CO)O2)c(=O)[nH]c1=O [Zidovudine]	0.89
Nc1nc2c(ncn2COCCO)c(=O)[nH]1 [Acyclovir]	1.19

Hi there! I need log10 MIC for each item below, if you can.
1. OCCN(CCO)c1nc(N2CCCCC2)c2nc(N(CCO)CCO)nc(N3CCCCC3)c2n1 [Dipyridamole]
2. COc1c(C)c2c(c(O)c1C/C=C(\C)CCC(=O)OCCN1CCOCC1)C(=O)OC2 [Mycophenolate mofetil]

Result:
0.28
2.40

Hi there! I need log10 MIC for each item below, if you can.
1. O=c1[nH]cc(F)c(=O)[nH]1 [5-fluorouracil]
2. Nc1nc2nc[nH]c2c(=S)[nH]1 [6-thioguanine (6-TG), 6-thioguanine]

Result:
1: 1.49; 2: -0.70

GET /value?item= Cc1cn([C@H]2C=C[C@@H](CO)O2)c(=O)[nH]c1=O [Stavudine] &field=log10 MIC returns 1.25

---

Test system: M. pneumoniae wild type (laboratory strain M129)
experimentDescription: Mpn growth inhibition in 96-well plates (growth index A450/A560), wild type strain
Type: cell-based, Mycoplasma pneumoniae
conditionParameters: Mycoplasmoides pneumoniae, read-out: Wild type MIC
Binarize MIC at 20 µg/mL; below is satisfied, at or above is not satisfied.

Study these solved cases before continuing.
compound	experimentalTarget	category
Cc1cn([C@H]2C=C[C@@H](CO)O2)c(=O)[nH]c1=O	M. pneumoniae wild type (laboratory strain M129)	satisfied
COc1c(C)c2c(c(O)c1C/C=C(\C)CCC(=O)OCCN1CCOCC1)C(=O)OC2 [Mycophenolate mofetil]	M. pneumoniae wild type (laboratory strain M129)	not satisfied
CC(=O)CCCCn1c(=O)c2c(ncn2C)n(C)c1=O	M. pneumoniae wild type (laboratory strain M129)	not satisfied
Cn1c(=O)c2c(ncn2CC(O)CO)n(C)c1=O (centres unmarked) [7-(2,3-dihydroxypropyl)theophylline]	M. pneumoniae wild type (laboratory strain M129)	not satisfied
O=c1[nH]cc(F)c(=O)[nH]1	M. pneumoniae wild type (laboratory strain M129)	not satisfied

Request: Bench note: check whether Sc1ncnc2nc[nH]c12 shows MIC below 20 µg/mL
Result: not satisfied

Request: Bench note: check whether NC(=O)c1ncn([C@@H]2O[C@H](CO)[C@@H](O)[C@H]2O)n1 shows MIC below 20 µg/mL
Result: not satisfied

Request: Bench note: check whether Nc1ccn([C@H]2CC[C@@H](CO)O2)c(=O)n1 shows MIC below 20 µg/mL
Result: not satisfied

Request: Bench note: check whether Nc1nc(F)nc2c1ncn2[C@@H]1O[C@H](COP(=O)(O)O)[C@@H](O)[C@@H]1O [Fludarabine phosphate] shows MIC below 20 µg/mL
Result: not satisfied

Request: Bench note: check whether Nc1ccn([C@@H]2O[C@H](CO)[C@@H](O)C2(F)F)c(=O)n1 shows MIC below 20 µg/mL
Result: satisfied

Request: Bench note: check whether Cn1cnc([N+](=O)[O-])c1Sc1ncnc2nc[nH]c12 shows MIC below 20 µg/mL
Result: not satisfied

---

Tested on: Mpn wild type cells
experimentDescription: Uptake and metabolism of tritium labelled natural nucleoside and nucleobases in the presence of analogs
Format: cell-based, Mycoplasma pneumoniae
conditionParameters: 10 μM analog, 70 hours, 37°C; radioactivity in cells / total added
Kindly return satisfied if reported [3H]-Ura Total uptake is no lower than 0.2%; return not satisfied if it is lower.

compound	category
O=c1[nH]c(=O)n([C@H]2C[C@H](O)[C@@H](CO)O2)cc1C(F)(F)F [Trifluorothymidine (TFT), Trifluorothymidine]	not satisfied
Nc1ccn([C@@H]2O[C@H](CO)[C@@H](O)C2(F)F)c(=O)n1 [Gemcitabine (dFdC), Gemcitabine]	not satisfied
O=c1[nH]c(=O)n([C@H]2C[C@H](O)[C@@H](CO)O2)cc1F [5-fluorodeoxyuridine (5FdU), 5-fluorodeoxyuridine]	not satisfied

Note: attention shifts to another entry.
Request: Reported [3H]-Ura Total uptake at or above 0.2%? Nc1nc2nc[nH]c2c(=S)[nH]1 [6-thioguanine (6-TG), 6-thioguanine]
Result: satisfied

---

experimentalTarget: Ureaplasma TK (Ureaplasma parvum serovar 3, UniProt Q9PPP5)
Sequence (Q9PPP5 whole entry): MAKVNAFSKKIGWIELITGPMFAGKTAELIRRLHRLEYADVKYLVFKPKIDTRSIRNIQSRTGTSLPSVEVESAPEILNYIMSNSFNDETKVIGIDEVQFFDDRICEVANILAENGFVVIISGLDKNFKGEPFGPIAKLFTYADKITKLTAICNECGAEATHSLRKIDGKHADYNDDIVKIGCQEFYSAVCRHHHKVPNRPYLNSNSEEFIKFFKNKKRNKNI
experimentDescription: Thymidine kinase inhibition with [3H]-dT as substrate
conditionParameters: 10 μM tritium labelled thymidine
observable: pIC50
One number for each entry, as −log10 of the molar value.

molecule	pIC50
O=c1[nH]c(=O)n([C@H]2C[C@H](O)[C@@H](CO)O2)cc1C(F)(F)F [Trifluorothymidine (TFT), Trifluorothymidine]	4.92

GET /value?item= O=c1[nH]c(=O)n([C@H]2C[C@H](O)[C@@H](CO)O2)cc1F [5-fluorodeoxyuridine (5FdU), 5-fluorodeoxyuridine] &field=pIC50 returns 3.00

---

Tested on: M. pneumoniae thyA mutant (lacking TS activity)
experimentDescription: microbe, parasite or virus in culture
Format: cell-based, Mycoplasma pneumoniae
conditionParameters: Mycoplasmoides pneumoniae, read-out: thyA mutant MIC
observable: MIC

compound	MIC
CCc1nc(N)nc(N)c1-c1ccc(Cl)cc1	> 500 µg/mL
O=c1[nH]c(=O)n([C@H]2C[C@H](O)[C@@H](CO)O2)cc1F	15.6 µg/mL
Cn1c(=O)c2c(ncn2C)n(C)c1=O	> 500 µg/mL
Nc1ccn([C@@H]2O[C@H](CO)[C@@H](O)C2(F)F)c(=O)n1	2.4 µg/mL
CC(C)[C@H](N)C(=O)OCCOCn1cnc2c(=O)[nH]c(N)nc21	> 500 µg/mL
Nc1ncnc2c1ncn2[C@@H]1O[C@H](CO)[C@@H](O)[C@@H]1O	> 500 µg/mL
Nc1ccn(C[C@@H](CO)OCP(=O)(O)O)c(=O)n1	31.2 µg/mL

Here's the next entry for you.
GET /value?item= Nc1nc(F)nc2c1ncn2[C@@H]1O[C@H](COP(=O)(O)O)[C@@H](O)[C@@H]1O [Fludarabine phosphate] &field=MIC returns > 500 µg/mL

---

Measurement record for human TK1 (Homo sapiens, UniProt P04183); quantity recorded: IC50.
Answers are plain numbers, in µM.

O=c1[nH]c(=O)n([C@H]2C[C@H](O)[C@@H](CO)O2)cc1F 75.9

Here's the next entry for you.
GET /value?item= O=c1[nH]c(=O)n([C@H]2C[C@H](O)[C@@H](CO)O2)cc1C(F)(F)F &field=IC50 returns 9.7

---

experimentalTarget: Mpn HPRT (Mycoplasmoides pneumoniae, UniProt P75119)
Sequence (P75119 whole entry): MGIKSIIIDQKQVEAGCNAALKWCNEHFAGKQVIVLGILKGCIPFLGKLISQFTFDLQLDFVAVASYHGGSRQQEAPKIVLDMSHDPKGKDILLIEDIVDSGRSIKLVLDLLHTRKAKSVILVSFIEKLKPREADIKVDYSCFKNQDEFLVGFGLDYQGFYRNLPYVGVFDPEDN
experimentDescription: biochemical
conditionParameters: substrate hypoxanthine, 10 μM [3H]-hypoxanthine
Kindly supply the reported IC50 values for the records listed here.

Please review the following examples before continuing.
Nc1nc2nc[nH]c2c(=S)[nH]1 3.5 µM
Cn1c(=O)c2[nH]cnc2n(C)c1=O > 4000 µM

Here's the next entry for you.
GET /value?item= Sc1ncnc2nc[nH]c12 &field=IC50 returns 89.7 µM

---

Kindly supply the reported MIC values for the records listed here.
Test system: M. pneumoniae wild type (laboratory strain M129)
experimentDescription: Mpn growth inhibition in 96-well plates (growth index A450/A560), wild type strain
Type: cell-based, Mycoplasma pneumoniae
conditionParameters: Mycoplasmoides pneumoniae, read-out: Wild type MIC
Answers are plain numbers, in µg/mL.

Nc1ccn(C[C@@H](CO)OCP(=O)(O)O)c(=O)n1 31.2
Cc1cn([C@H]2C[C@H](N=[N+]=[N-])[C@@H](CO)O2)c(=O)[nH]c1=O 7.8
O=c1[nH]c(=O)n([C@H]2C[C@H](O)[C@@H](CO)O2)cc1F 7.8
O=c1[nH]c(=O)n([C@H]2C[C@H](O)[C@@H](CO)O2)cc1I 15.6

Here's the next entry for you.
Recorded MIC for OCCN(CCO)c1nc(N2CCCCC2)c2nc(N(CCO)CCO)nc(N3CCCCC3)c2n1 on M. pneumoniae wild type (laboratory strain M129) was 1.9
